Reported log10 Koa by item:
Simply state the number, no unit and no words.

Some solved entries appear below for comparison.
>  <compound>
c1cc2ccc3cccc4ccc(c1)c2c34

>  <endpoint-name>
log10 Koa

>  <reported-value>
8.8

$$$$
>  <compound>
CCCNCCC

>  <endpoint-name>
log10 Koa

>  <reported-value>
3.59

$$$$
>  <compound>
CCCC

>  <endpoint-name>
log10 Koa

>  <reported-value>
1.53

$$$$
>  <compound>
Clc1ccc(Cl)c(-c2c(Cl)cccc2Cl)c1

>  <endpoint-name>
log10 Koa

>  <reported-value>
8.45

$$$$
>  <compound>
CCCCCCOC(C)=O

>  <endpoint-name>
log10 Koa

>  <reported-value>
4.58

$$$$

Prompt line: Quick one: log10 Koa for CCCC=O ?
Response line: 3.39

Prompt line: Quick one: log10 Koa of ClC(Cl)=C(Cl)Cl ?
Response line: 3.48

Prompt line: State the recorded log10 Koa for this entry: Clc1ccc(C(c2ccc(Cl)cc2)C(Cl)(Cl)Cl)cc1
Response line: 9.82

Prompt line: If you can, please state the reported log10 Koa value of Clc1cc2oc3ccc(Cl)c(Cl)c3c2cc1Cl .
Response line: 9.78

Prompt line: Field request: log10 Koa | item: Clc1ccc(Cl)c(-c2cccc(Cl)c2Cl)c1
Response line: 8.36

Prompt line: Which log10 Koa is reported for this compound? CC(Cl)CCl (stereo unspecified)
Response line: 2.96

Prompt line: Which value of log10 Koa has been reported for CCC[N+](=O)[O-] in the records?
Response line: 3.25

Prompt line: Fill blank: measured log10 Koa of the compound Clc1ccc(-c2c(Cl)c(Cl)c(Cl)c(Cl)c2Cl)c(Cl)c1 is ____.
Response line: 10.5

Prompt line: Quick one: log10 Koa of Clc1cc(-c2ccccc2)c(Cl)c(Cl)c1Cl ?
Response line: 8.74

Prompt line: // returns reported log10 Koa for input CCCCOCCCC
Response line: 3.89

Prompt line: So what does the record say about log10 Koa for C=C ?
Response line: 0.28

Reference source for all entries: the OPERA property sets (Mansouri et al. 2018)
